# System: EIF2AK1;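 further: KINOMEscan kinase panel screen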
# conditionSet: concentration: 1 μM, replicates: in singlicate; n = 1
Define the label as 1.0 when %Inh is strictly less than 9% and as 0.0 in all remaining cases.

Look over these answered cases.
CN1CCN(Cc2cccc(-c3ccc4c(Nc5ccc(Oc6ccccc6)cc5)ccnc4c3)c2)CC1    1.0
COc1cc(Nc2nccc(-c3c(-c4cccc(NC(=O)c5c(F)cccc5F)c4)nn4ccccc34)n2)cc(OC)c1OC    0.0
Cn1cc(-c2ccc3c(c2)CCN3C(=O)Cc2cccc(F)c2)c2c(N)ncnc21    0.0
COc1cccc(C(=O)Nc2cccc(Oc3ccc4nc(NC(=O)C5CC5)cn4n3)c2)c1    1.0
c1ccc(Oc2ccc(Nc3ccnc4cc(-c5ccc(CNCCN6CCOCC6)o5)ccc34)cc2)nc1    1.0

Now, please, on to the next molecule.
Asked: hey, is %Inh for "Cl.c1ccc(-c2ccc3c(Nc4ccc5[nH]ccc5c4)ccnc3c2)nc1" lower than 9% or not?
Given back: 1.0

Reference for the values: paper PMC5540273
